targetOrSystem: Calmodulin-1 (Homo sapiens)
methodDescription: calcium-bound CALM1 binders on microarrays, profiling panel, artefact control for SMM control-protein annotation, biochemical, small-molecule microarray, Cy5-labelled CALM1, plus calcium (AID 1112);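 further: score merges spot fluorescence with signal to noise from triplicate slides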
cond: Cy5-CALM1 binding fluorescence, higher = more signal
For each entry below, report its composite z-score value.

Note down composite z-score recorded for `COc1ccc(CCN2C(=O)[C@@]3(c4ccc([N+](=O)[O-])cc4)CC(=O)N(CC45CC6CC(CC(C6)C4)C5)[C@@H]3c3ccc(CO)cc32)cc1` -0.474

Note down composite z-score recorded for `C[C@@H]1CC[C@H]2C(=O)N3CCC[C@H]3C(=O)N2[C@H]1c1ccc(Br)cc1` -0.558

Note down composite z-score recorded for `C[C@]1(C(=O)NCc2ccccc2)c2ccccc2C(=O)N(Cc2cc(C(F)(F)F)cc(C(F)(F)F)c2)[C@H]1c1ccc(CO)cc1` 0.844

Note down composite z-score recorded for `C=CCNC(=O)[C@H]1[C@@H]2C(=O)O[C@@H](c3ccccc3)[C@@H](c3ccccc3)N2[C@@H](c2ccc(O)cc2)[C@]12C(=O)Nc1ccc(C#CCNC(N)=O)cc12` -0.0701

###

methodDescription: binders of probe aFST on microarray, primary screen, stem cell growth factor project, biochemical, small-molecule microarray, fluorescence 635/667 (AID 1086);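 further: score merges 667 nm fluorescence with signal-to-noise of each printed compound spot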
cond: higher = more signal
Please use class 1 whenever composite z-score is not below -0.1, and class 0 whenever it is.

Is reported composite z-score greater than or equal to -0.1 here: `C=C[C@H](OC)[C@@H](OC(=O)Nc1ccc(SC)cc1)c1ccc(O)c(F)c1` class 0

Is reported composite z-score greater than or equal to -0.1 here: CN1CCC(CCCO)=CC1C1CC1 (stereo not drawn) class 0

Is reported composite z-score greater than or equal to -0.1 here: `CC(C)[Si](OCC[C@H]1O[C@]2(C(=O)N(Cc3ccccc3)c3ccccc32)[C@@H](C)[C@@H]1[Si](C)(C)O)(C(C)C)C(C)C` class 1

Is reported composite z-score greater than or equal to -0.1 here: `C=CCNC(=O)[C@@H]1[C@H]2C(=O)O[C@H](c3ccccc3)[C@H](c3ccccc3)N2[C@H](c2ccc(OCCO)cc2)[C@@]12C(=O)N(C(=O)OCCOC)c1ccc(C#CC3(O)CCCCCC3)cc12` class 1

Is reported composite z-score greater than or equal to -0.1 here: `COc1cccc([C@H]2N[C@H](C(=O)O)CC[C@@H]2C)c1` class 1

Is reported composite z-score greater than or equal to -0.1 here: `CCCC/C=C/[C@H]([C@@H](O)Cc1ccccc1)N(CC#Cc1ccccc1)Cc1ccccc1Br` class 0

Is reported composite z-score greater than or equal to -0.1 here: `COc1cc([C@@H]2N[C@H](C(=O)O)Cc3c2[nH]c2ccccc32)cc(OC)c1OC` class 0

Is reported composite z-score greater than or equal to -0.1 here: C=CCN(C(=O)C1N(c2ccc(CCO)cc2)C(=O)C2C(C(=O)O)C3C=CC21O3)C(C)(C)C (stereo not drawn) class 0

###

Tested on: Plasmodium falciparum Sir2 (PF13_0152, Sir2A)
methodDescription: pfSir2 binders on small-molecule microarrays, primary screen, biochemical, small-molecule microarray, 635 nm fluorescence (AID 1098);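 further: score merges spot fluorescence intensity with its signal-to-noise ratio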
cond: small-molecule microarray binding, fluorescence 635 nm; higher = more signal
experimentalReadout: composite z-score
// no unit string in output, number only

Give reported composite z-score for `CCOC(=O)C[C@H]1[C@H](OC(=O)c2ccccc2-c2ccccc2)[C@@H](NC(=O)C2CCCCC2)c2cc(OCCCO)ccc2N1C(=O)c1ccccc1` (Plasmodium falciparum Sir2 (PF13_0152, Sir2A)) 0.253

Give reported composite z-score for `Cc1ccc(S[C@]2(C(=O)NCCN3CCOCC3)CC(=O)N(C3Cc4ccccc4C3)[C@@H]2c2ccc(CO)cc2I)cc1` (Plasmodium falciparum Sir2 (PF13_0152, Sir2A)) 1.84

Give reported composite z-score for `COc1cc(CO)cc(I)c1O[C@H]1C=C(C(=O)NCCO)C[C@@H](N(CC2CCCCC2)C(=O)c2cc3ccccc3oc2=O)[C@@H]1O` (Plasmodium falciparum Sir2 (PF13_0152, Sir2A)) -0.375

Give reported composite z-score for `COC(=O)[C@@]1(Cc2ccccc2N=[N+]=[N-])N=C(c2ccc(OCCCO)cc2)O[C@H]1c1ccccc1CN=[N+]=[N-]` (Plasmodium falciparum Sir2 (PF13_0152, Sir2A)) 1.16

Give reported composite z-score for `COc1cc2c(cc1OC)CN(C(=O)[C@H]1[C@@H]3C(=O)O[C@@H](c4ccccc4)[C@@H](c4ccccc4)N3[C@@H](c3ccc(O)cc3)[C@]13C(=O)Nc1ccc(C#CC4(O)CCCCCC4)cc13)CC2` (Plasmodium falciparum Sir2 (PF13_0152, Sir2A)) 1.75

Give reported composite z-score for `CCCC[C@@H]1C[C@H]1[C@@H](NC(=O)c1ccccc1)c1ccccc1C(F)(F)F` (Plasmodium falciparum Sir2 (PF13_0152, Sir2A)) 1.15

Give reported composite z-score for `Cc1ccc(N2C(=O)c3ccccc3[C@](C)(C(=O)O)[C@@H]2c2ccc(CO)cc2)nc1` (Plasmodium falciparum Sir2 (PF13_0152, Sir2A)) -0.445

Give reported composite z-score for CC[C@H]1C2=C3C(CC[C@H]4C(OC)OC[C@](C)([C@@H]34)N(C(=O)OC(C)(C)C)C2)C(CO)C1CO (stereo not given in full) (Plasmodium falciparum Sir2 (PF13_0152, Sir2A)) 0.593

Give reported composite z-score for `C[C@@H]1CC[C@H]2C(=O)N3[C@@H](CC[C@@H](C)[C@@H]3c3cccc(N4CCOCC4)c3)C(=O)N2[C@H]1c1cccc(Br)c1` (Plasmodium falciparum Sir2 (PF13_0152, Sir2A)) 1.1

Give reported composite z-score for `CC(C)(C)OC(=O)CC[C@@]1(C(=O)NCc2ccccc2)N=C(c2ccc(OCCCO)cc2)O[C@@H]1c1ccccc1` (Plasmodium falciparum Sir2 (PF13_0152, Sir2A)) 1.64

Give reported composite z-score for `CCCNC(=O)[C@@]1(Sc2ccc(C)cc2)CC(=O)N(Cc2ccccc2Cl)[C@@H]1c1ccc(CO)cc1` (Plasmodium falciparum Sir2 (PF13_0152, Sir2A)) 0.237

Give reported composite z-score for C=CC[C@]1(C(=O)NCC(O)CO)N=C(c2ccc(OCCCO)cc2)O[C@H]1c1ccccc1 (stereo not given in full) (Plasmodium falciparum Sir2 (PF13_0152, Sir2A)) 1.23

Give reported composite z-score for `C=C(CCCC)C(=O)CC[C@@H](OC(C)=O)c1ccccc1OCCO` (Plasmodium falciparum Sir2 (PF13_0152, Sir2A)) 1.34

Give reported composite z-score for O=C1NC(=O)C2C1C=CC(C(O)C=Cc1ccc([N+](=O)[O-])cc1)N2Nc1ccccn1 (stereo not given) (Plasmodium falciparum Sir2 (PF13_0152, Sir2A)) 1.1

Give reported composite z-score for `CC(C)CNC(=O)[C@@]1(C)c2ccccc2C(=O)N(Cc2ccc(OC(F)(F)F)cc2)[C@H]1c1ccc(CO)cc1` (Plasmodium falciparum Sir2 (PF13_0152, Sir2A)) -0.857
